# screen value annotations
B1: PAIP1 peptide 126-141 (Polyadenylate-binding protein-interacting protein 1), 16-mer library wild type / PABPC1 PABC (PABPC1 PABC domain, residues 544-623) (parent)
chain 1: SKLSVNAPEFYPSGYS
chain 2: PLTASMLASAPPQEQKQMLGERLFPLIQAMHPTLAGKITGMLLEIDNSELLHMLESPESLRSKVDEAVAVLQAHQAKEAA

- Variants of: B1
- Assay text: proteomic peptide phage display deep mutational scan (ProP-PD DMS): M13 P8 16-mer library selected against immobilised GST-tagged bait for four days (rounds), NGS of the eluted pools per day and pseudo-replica
- Condition: with PABPC1 PABC (PABPC1 PABC domain, residues 544-623); bait immobilised on MaxiSorp plates (10 µg), library pre-cleared on GST, 2 h binding at 4 °C, five washes; one round per day, days 1-4; value from days 2 and 3; keep out of graded; scale: average fractional NGS count over selection days 2 and 3
Readout name: screen value

>>> meas_value("chain 1 S1W")
0.000299
>>> meas_value("chain 1 P8G")
0.000696
>>> meas_value("chain 1 E9L")
0.000721
>>> meas_value("chain 1 N6Y")
0.000705
